The reported numbers originate from ChEMBL document CHEMBL4011617.

System: INA-6
Assay: Inhibition of heat shock response in human INA-6 cells assessed as reduction in HSF-1 mediated upregulation of the heat shock protein HSP72 at 50 uM preincubated for 4 hrs followed by HSP90 inhibitor and HSR inducer NVP-AUY922 addition measured after 4 hrs by ELISA
Assay type: functional, cell-based
The source made the active and inactive calls. No cut-off for these calls is given here.
Outcomes: 1.0 for active, 0.0 for inactive

[
  {
    "compound": "O=C(NCc1ccccc1)C(c1ccc(O)cc1)N(C(=O)CCc1ccccc1)C1CC1 (racemic)",
    "assignedCategory": 0.0
  },
  {
    "compound": "C/C=C/C(=O)N(Cc1ccccc1Cl)C(C(=O)NC(C)(C)C)c1ccccc1Br (racemic)",
    "assignedCategory": 1.0
  },
  {
    "compound": "O=C(CCCC[C@@H]1SC[C@@H]2NC(=O)N[C@@H]21)NCCOCCOCCNCCOc1ccc(C(C(=O)NCc2ccccc2)N(C(=O)CCc2ccccc2)C2CC2)cc1 (mixture of isomers)",
    "assignedCategory": 0.0
  },
  {
    "compound": "O=C(NCc1ccccc1)C(c1ccc(Br)cc1)N(C(=O)CCc1ccc(O)cc1)C1CC1 (racemic)",
    "assignedCategory": 1.0
  },
  {
    "compound": "O=C(CCCC[C@@H]1SC[C@@H]2NC(=O)N[C@@H]21)NCCOCCOCCNCCCCOc1ccc(CCC(=O)N(C2CC2)C(C(=O)NCc2ccccc2)c2ccc(Br)cc2)cc1 (mixture of isomers)",
    "assignedCategory": 0.0
  },
  {
    "compound": "C/C=C/C(=O)N(Cc1ccco1)C(C(=O)NC1CCCCC1)c1ccccc1Br (racemic)",
    "assignedCategory": 0.0
  },
  {
    "compound": "O=C(NCCN1CCOCC1)C(c1ccccc1)N(Cc1ccccc1)C(=O)/C=C/c1ccc(Cl)cc1Cl (racemic)",
    "assignedCategory": 1.0
  },
  {
    "compound": "O=C(NCc1ccccc1)C(c1ccccc1Br)N(Cc1ccccc1)C(=O)/C=C/c1ccccc1 (racemic)",
    "assignedCategory": 0.0
  },
  {
    "compound": "O=C(NCc1ccccc1)C(c1ccc(Br)cc1)N(C(=O)CCc1ccccc1)C1CC1 (racemic)",
    "assignedCategory": 1.0
  },
  {
    "compound": "C=CC(=O)N(CCc1ccc(OC)c(OC)c1)C(C(=O)NCCCCC)c1ccccc1Br (racemic)",
    "assignedCategory": 1.0
  },
  {
    "compound": "COc1ccc(/C=C/C(=O)N(Cc2ccc(OC)cc2)C(C(=O)NCc2ccccc2)c2ccccc2Br)cc1 (racemic)",
    "assignedCategory": 0.0
  },
  {
    "compound": "O=C(NCc1ccccc1)C(c1ccccc1)N(C(=O)/C=C/c1ccccc1)C1CC1 (racemic)",
    "assignedCategory": 1.0
  },
  {
    "compound": "NCCOCCOCCNCCOc1ccc(C(C(=O)NCc2ccccc2)N(C(=O)CCc2ccc(O)cc2)C2CC2)cc1 (stereo not given)",
    "assignedCategory": 0.0
  },
  {
    "compound": "CN(C(=O)/C=C/c1ccccc1)C(C(=O)NCc1ccccc1)c1ccccc1Br (racemic)",
    "assignedCategory": 1.0
  },
  {
    "compound": "CCCN(C(=O)/C=C/c1ccc(OC)cc1)C(C(=O)NC1CCCCC1)c1ccccc1Br (racemic)",
    "assignedCategory": 1.0
  },
  {
    "compound": "O=C(NCc1ccccc1)C(c1ccc(OCCBr)cc1)N(C(=O)CCc1ccccc1)C1CC1 (racemic)",
    "assignedCategory": 1.0
  },
  {
    "compound": "CCCN(C(=O)/C=C/c1ccccc1)C(C(=O)NCCN1CCOCC1)c1ccccc1Br (racemic)",
    "assignedCategory": 0.0
  },
  {
    "compound": "O=C(CCCC[C@@H]1SC[C@@H]2NC(=O)N[C@@H]21)NCCOCCOCCNCCOc1ccc(C(C(=O)NCc2ccccc2)N(C(=O)CCc2ccc(O)cc2)C2CC2)cc1 (mixture of isomers)",
    "assignedCategory": 0.0
  },
  {
    "compound": "O=C(NCCN1CCOCC1)C(c1ccccc1Br)N(Cc1ccccc1)C(=O)/C=C/c1ccc(Cl)cc1Cl (racemic)",
    "assignedCategory": 1.0
  },
  {
    "compound": "C=CC(=O)N(CCOCCO)C(C(=O)NC(C)(C)C)c1ccccc1Br (racemic)",
    "assignedCategory": 0.0
  }
]
